System: MS S. aureus 15–99
protocol: Interaction study, checkerboard titration
Assay type: cell-based, Staphylococcus aureus
experimental parameters: antibiotic in combination with RNL (ranalexin)
quantity name: FIC index
Enter the number alone.

Some compounds with known FIC index results, for comparison:
>>> obs_value("CO/N=C(\\C(=O)N[C@@H]1C(=O)N2C(C(=O)O)=C(CSc3nc(=O)c(=O)[nH]n3C)CS[C@H]12)c1csc(N)n1 [CRO, ceftriaxone]")
1.250
>>> obs_value("C[C@@H](O)[C@H]1C(=O)N2C(C(=O)O)=C(S[C@@H]3CN[C@H](C(=O)N(C)C)C3)[C@H](C)[C@H]12 [MEM, meropenem]")
1.500
>>> obs_value("CC[C@H]1OC(=O)[C@H](C)[C@@H](O[C@H]2C[C@@](C)(OC)[C@@H](O)[C@H](C)O2)[C@H](C)[C@@H](O[C@@H]2O[C@H](C)C[C@H](N(C)C)[C@H]2O)[C@](C)(OC)C[C@@H](C)C(=O)[C@H](C)[C@@H](O)[C@]1(C)O [CLR, clarithromycin]")
0.187

Attention now shifts to the item below.
Query: Need FIC index, item C[C@H]1c2cccc(O)c2C(=O)C2=C(O)[C@]3(O)C(=O)C(C(N)=O)=C(O)[C@@H](N(C)C)[C@@H]3[C@@H](O)[C@@H]21 [D, doxycycline]
Response: 0.250

* * *

Let's look at some molecules and their measured FIC index.
System: P. aeruginosa 8–97
protocol: Interaction study, checkerboard titration
Format: cell-based, Pseudomonas aeruginosa
experimental parameters: antibiotic in combination with RNL (ranalexin)
Lab note: record the figure alone, no unit after it.

Example entries and their recorded answers appear below.
>>> obs_value("CC[C@H]1OC(=O)[C@H](C)[C@@H](O[C@H]2C[C@@](C)(OC)[C@@H](O)[C@H](C)O2)[C@H](C)[C@@H](O[C@@H]2O[C@H](C)C[C@H](N(C)C)[C@H]2O)[C@](C)(OC)C[C@@H](C)C(=O)[C@H](C)[C@@H](O)[C@]1(C)O [CLR, clarithromycin]")
0.375
>>> obs_value("C[C@H]1c2cccc(O)c2C(=O)C2=C(O)[C@]3(O)C(=O)C(C(N)=O)=C(O)[C@@H](N(C)C)[C@@H]3[C@@H](O)[C@@H]21 [D, doxycycline]")
0.312

// moving on: another record for FIC index
Query: Checklist item: FIC index tested on P. aeruginosa 8–97, entry CCN1CCN(C(=O)N[C@@H](C(=O)N[C@@H]2C(=O)N3[C@@H]2SC(C)(C)[C@@H]3C(=O)O)c2ccccc2)C(=O)C1=O [PIP, piperacillin] , value?
Response: 1.000

* * *

Test system: P. aeruginosa 8–97
protocol: Interaction study, checkerboard titration
Format: cell-based, Pseudomonas aeruginosa
experimental parameters: antibiotic in combination with RNL (ranalexin)
Recorded FIC index values for a group of compounds are listed next.

Guide cases for FIC index, answers given:
>>> obs_value("CO/N=C(\\C(=O)N[C@@H]1C(=O)N2C(C(=O)O)=C(CSc3nc(=O)c(=O)[nH]n3C)CS[C@H]12)c1csc(N)n1")
0.750
>>> obs_value("CC(C)(O/N=C(\\C(=O)N[C@@H]1C(=O)N2C(C(=O)[O-])=C(C[n+]3ccccc3)CS[C@H]12)c1csc(N)n1)C(=O)O")
1.500

// switching to the query compound
Query: Please give the measured FIC index for this compound: C[C@@H](O)[C@H]1C(=O)N2C(C(=O)O)=C(S[C@@H]3CN[C@H](C(=O)N(C)C)C3)[C@H](C)[C@H]12
Response: 1.000

* * *

System: E. coli 31–97
protocol: Interaction study, checkerboard titration
Type: cell-based, Escherichia coli
experimental parameters: antibiotic in combination with RNL (ranalexin)
The following compounds are listed with their measured FIC index values.

Example compounds with recorded FIC index:
>>> obs_value("C[C@H]1c2cccc(O)c2C(=O)C2=C(O)[C@]3(O)C(=O)C(C(N)=O)=C(O)[C@@H](N(C)C)[C@@H]3[C@@H](O)[C@@H]21")
0.375
>>> obs_value("C[C@@H](O)[C@H]1C(=O)N2C(C(=O)O)=C(S[C@@H]3CN[C@H](C(=O)N(C)C)C3)[C@H](C)[C@H]12")
1.000
>>> obs_value("CO/N=C(\\C(=O)N[C@@H]1C(=O)N2C(C(=O)O)=C(CSc3nc(=O)c(=O)[nH]n3C)CS[C@H]12)c1csc(N)n1")
1.250
>>> obs_value("CC[C@H]1OC(=O)[C@H](C)[C@@H](O[C@H]2C[C@@](C)(OC)[C@@H](O)[C@H](C)O2)[C@H](C)[C@@H](O[C@@H]2O[C@H](C)C[C@H](N(C)C)[C@H]2O)[C@](C)(OC)C[C@@H](C)C(=O)[C@H](C)[C@@H](O)[C@]1(C)O")
0.312

Query: Form entry - test system: E. coli 31–97; read-out: FIC index; compound: CCN1CCN(C(=O)N[C@@H](C(=O)N[C@@H]2C(=O)N3[C@@H]2SC(C)(C)[C@@H]3C(=O)O)c2ccccc2)C(=O)C1=O
Response: 1.250

* * *

Test system: E. coli 7–98
protocol: Interaction study, checkerboard titration
Format: cell-based, Escherichia coli
experimental parameters: antibiotic in combination with MG II (magainin II)
quantity name: FIC index
Would you mind answering with just the numeric figure?

Solved cases (2 shown):
>>> obs_value("CO/N=C(\\C(=O)N[C@@H]1C(=O)N2C(C(=O)O)=C(CSc3nc(=O)c(=O)[nH]n3C)CS[C@H]12)c1csc(N)n1")
0.250
>>> obs_value("C[C@@H](O)[C@H]1C(=O)N2C(C(=O)O)=C(S[C@@H]3CN[C@H](C(=O)N(C)C)C3)[C@H](C)[C@H]12")
0.375

Query compound follows.
Query: What does the data say about its FIC index? Entry: CC(C)(O/N=C(\C(=O)N[C@@H]1C(=O)N2C(C(=O)[O-])=C(C[n+]3ccccc3)CS[C@H]12)c1csc(N)n1)C(=O)O
Response: 0.312
